List of % inhibition values.
measured_target: T1, recombinant human EGFR extracellular domain with 6xHis (human, UniProt P00533 25-645)
T1 construct: In-house produced; also called 6xHis EGFR ECD; soluble human EGFR ECD; not shown: 6xHis tag
protocol_notes: SPR competition, competitor Erbitux
Answer in %, number only, no unit symbol.

A selection of reference data follows.
>  <binder>
antibody 1261 (antibody, human IgG1, kappa, V domains shown, Chimeric IgG1 kappa) VH: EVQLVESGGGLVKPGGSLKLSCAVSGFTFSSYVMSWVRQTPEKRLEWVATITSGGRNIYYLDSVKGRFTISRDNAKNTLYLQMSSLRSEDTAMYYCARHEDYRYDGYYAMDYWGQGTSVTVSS VL: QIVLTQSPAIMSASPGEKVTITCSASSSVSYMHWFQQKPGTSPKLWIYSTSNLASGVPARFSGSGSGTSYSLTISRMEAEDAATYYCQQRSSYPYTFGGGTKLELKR

>  <quantity_kind>
% inhibition

>  <test_value>
-2

$$$$
>  <binder>
antibody 1320 (antibody, human IgG1, kappa, V domains shown, Chimeric IgG1 kappa) VH: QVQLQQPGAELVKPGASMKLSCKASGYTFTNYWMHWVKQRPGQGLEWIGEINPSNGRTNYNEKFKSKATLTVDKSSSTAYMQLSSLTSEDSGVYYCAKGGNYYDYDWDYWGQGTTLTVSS VL: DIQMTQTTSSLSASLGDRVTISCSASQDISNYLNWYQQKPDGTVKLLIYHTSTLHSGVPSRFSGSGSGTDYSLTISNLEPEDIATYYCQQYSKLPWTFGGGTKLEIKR

>  <quantity_kind>
% inhibition

>  <test_value>
2

$$$$

Okay, next one:
The recorded % inhibition for entry antibody 1208 (antibody, human IgG1, kappa, V domains shown, Chimeric IgG1 kappa; also called clone 1208) VH: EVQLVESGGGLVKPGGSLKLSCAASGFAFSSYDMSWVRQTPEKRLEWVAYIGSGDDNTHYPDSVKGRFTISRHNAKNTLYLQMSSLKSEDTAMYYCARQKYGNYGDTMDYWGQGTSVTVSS VL: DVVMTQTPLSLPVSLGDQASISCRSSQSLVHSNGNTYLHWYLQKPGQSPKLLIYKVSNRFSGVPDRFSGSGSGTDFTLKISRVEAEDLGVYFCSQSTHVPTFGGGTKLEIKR equals 18
